Biological target: T1, CD3 epsilon homodimer protein (UniProt P07766 23-126)
T1 construct: also called CD3 (CD3 epsilon)
T1 sequence (P07766 23-126): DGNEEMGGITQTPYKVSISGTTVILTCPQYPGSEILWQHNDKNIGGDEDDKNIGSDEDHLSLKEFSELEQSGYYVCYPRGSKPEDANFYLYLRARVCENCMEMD
Assay: SPR, antibody over immobilised CD3e homodimer;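 further: SPR at 25 °C with CD3 epsilon homodimer amine-coupled to a CM4 sensor chip and antibody flowed over as analyte in HBS-EP+ running buffer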
Measurement Kind: KD ratio to GLS3000
Answer with a number only.

For orientation, consider the following solved cases.
Binder | KD ratio to GLS3000
CE115HA000/GLS3000 Q93E (antibody, IgG1, name in Kabat numbering, V domains shown, one-arm IgG1) VH: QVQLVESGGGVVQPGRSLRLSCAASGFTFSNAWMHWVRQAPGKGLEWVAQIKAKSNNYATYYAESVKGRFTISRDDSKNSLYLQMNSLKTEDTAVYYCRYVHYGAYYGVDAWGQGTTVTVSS VL: DIVMTQSPLSLPVTPGEPASISCRSSQSLVHSNRNTYLHWYQQKPGQAPRLLIYKVSNRFSGVPDRFSGSGSGTDFTLKISRVEAEDVGVYYCGQGTEVPYTFGQGTKLEIK | 1.05
CE115HA000/GLS3000 P95A (antibody, IgG1, name in Kabat numbering, V domains shown, one-arm IgG1) VH: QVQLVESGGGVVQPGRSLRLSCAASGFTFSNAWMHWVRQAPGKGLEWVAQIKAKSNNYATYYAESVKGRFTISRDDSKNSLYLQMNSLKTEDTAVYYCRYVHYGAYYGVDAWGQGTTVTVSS VL: DIVMTQSPLSLPVTPGEPASISCRSSQSLVHSNRNTYLHWYQQKPGQAPRLLIYKVSNRFSGVPDRFSGSGSGTDFTLKISRVEAEDVGVYYCGQGTQVAYTFGQGTKLEIK | 0.87
CE115HA000/GLS3000 K50T (antibody, IgG1, name in Kabat numbering, V domains shown, one-arm IgG1) VH: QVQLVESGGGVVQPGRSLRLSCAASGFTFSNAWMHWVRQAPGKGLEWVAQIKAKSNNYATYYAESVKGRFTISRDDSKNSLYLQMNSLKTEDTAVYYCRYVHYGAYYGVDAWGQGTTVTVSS VL: DIVMTQSPLSLPVTPGEPASISCRSSQSLVHSNRNTYLHWYQQKPGQAPRLLIYTVSNRFSGVPDRFSGSGSGTDFTLKISRVEAEDVGVYYCGQGTQVPYTFGQGTKLEIK | 25.1
CE115HA000/GLS3000 Y32F (antibody, IgG1, name in Kabat numbering, V domains shown, one-arm IgG1) VH: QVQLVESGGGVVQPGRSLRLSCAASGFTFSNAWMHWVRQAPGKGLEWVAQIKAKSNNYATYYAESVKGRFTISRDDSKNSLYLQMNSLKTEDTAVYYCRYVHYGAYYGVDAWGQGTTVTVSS VL: DIVMTQSPLSLPVTPGEPASISCRSSQSLVHSNRNTFLHWYQQKPGQAPRLLIYKVSNRFSGVPDRFSGSGSGTDFTLKISRVEAEDVGVYYCGQGTQVPYTFGQGTKLEIK | 4.51

(Q) What value of KD ratio to GLS3000 has been reported for the following binder? CE115HA000/GLS3000 Q90E (antibody, IgG1, name in Kabat numbering, V domains shown, one-arm IgG1) VH: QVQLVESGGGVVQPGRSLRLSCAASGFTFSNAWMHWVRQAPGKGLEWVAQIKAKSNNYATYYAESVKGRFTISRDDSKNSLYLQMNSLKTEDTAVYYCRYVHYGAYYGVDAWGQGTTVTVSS VL: DIVMTQSPLSLPVTPGEPASISCRSSQSLVHSNRNTYLHWYQQKPGQAPRLLIYKVSNRFSGVPDRFSGSGSGTDFTLKISRVEAEDVGVYYCGEGTQVPYTFGQGTKLEIK
(A) 0.91
